Quick record of IC50 values for Gag-Pol polyprotein [489-587] (Human immunodeficiency virus 1).
Hi! Could you send only the number? It should be in nM, unit omitted.

Cc1cc(SC2C(=O)CC(CCc3ccccc3)(C(C)C)OC2=O)c(C(C)(C)C)cc1OS(=O)(=O)c1ccccn1 (stereo not given) | 6.7

If you can, please state the reported IC50 value of Cc1cc(SC2C(=O)CC(CCc3ccc(O)cc3)(C(C)C)OC2=O)c(C(C)(C)C)cc1N (stereo not given) .
2.7

Moving on to the next molecule: Cc1cc(SC2C(=O)CC(C)(CCc3ccc(O)cc3)OC2=O)c(C(C)(C)C)cc1NS(=O)(=O)c1ccc(F)cc1 (stereo not given)
3.7

Subsequent entry: Cc1cc(SC2C(=O)CC(CCc3ccc(O)cc3)(C(C)C)OC2=O)c(C(C)(C)C)cc1NS(=O)(=O)c1cccs1 (stereo not given)
8.7

// next record CCNS(=O)(=O)Oc1cc(C(C)(C)C)c(SC2C(=O)CC(CCc3ccc(O)cc3)(C(C)C)OC2=O)cc1C (stereo not given) [6-Alkyl-5,6-Dihydropyran-2-one 20]
4.9

* * *

molecular target: Dimer of Gag-Pol polyprotein [489-587] (Human immunodeficiency virus 1, UniProt P12497); construct: 489-587; test: Protease Inhibition Assay; settings: pH 6.2; 37 °C
pIC50 values for the molecules below.
Conceptually, pIC50 converts a concentration in mol/L into minus its log10.

The cases that follow already have their pIC50 on record.
Cc1cc(SC2C(=O)CC(C)(CCc3ccc(O)cc3)OC2=O)c(C(C)(C)C)cc1NS(=O)(=O)c1ccccc1 (stereo not drawn) | 8.82
Cc1cc(SC2C(=O)CC(C)(CCc3ccc(O)cc3)OC2=O)c(C(C)(C)C)cc1NS(=O)(=O)c1cccc(-c2cccs2)c1 (stereo not drawn) | 8.20
Cc1cc(SC2C(=O)CC(C)(CCc3ccc(O)cc3)OC2=O)c(C(C)(C)C)cc1N (stereo not drawn) | 7.89
Cc1cc(SC2C(=O)CC(CCc3ccc(O)cc3)(C3CCCC3)OC2=O)c(C(C)(C)C)cc1NS(=O)(=O)c1ccccc1 (stereo not drawn) | 8.07
Cc1cc(SC2C(=O)CC(C)(CCc3ccc(O)cc3)OC2=O)c(C(C)(C)C)cc1NS(=O)(=O)c1nccn1C (stereo not drawn) | 8.72
Cc1cc(SC2C(=O)CC(CCc3ccc(O)cc3)(C(C)C)OC2=O)c(C(C)(C)C)cc1NS(=O)(=O)c1ccc(F)cc1 (stereo not drawn) | 8.39

Form entry - test system: Dimer of Gag-Pol polyprotein [489-587] (Human immunodeficiency virus 1, UniProt P12497); read-out: pIC50; molecule: Cc1cc(SC2C(=O)CC(CCc3ccc(O)cc3)(C(C)C)OC2=O)c(C(C)(C)C)cc1NS(=O)(=O)c1ccccn1 (stereo not drawn)
8.59

Query Cc1cc(SC2C(=O)CC(CCc3ccc(O)cc3)(C3CC3)OC2=O)c(C(C)(C)C)cc1NS(=O)(=O)c1ccccc1 (stereo not drawn) next
8.44

* * *

Each entry below carries its reported pIC50.
target: Dimer of Gag-Pol polyprotein [489-587] (Human immunodeficiency virus 1, UniProt P12497); construct: 489-587; assay: Protease Inhibition Assay
// pIC50: -log10(molar conc.)

Cc1cc(SC2C(=O)CC(CCc3ccccc3)(C(C)C)OC2=O)c(C(C)(C)C)cc1NS(=O)(=O)c1ccccn1 (configuration not stated) | 8.52

Next molecule, please.
# query: pIC50 of entry Cc1cc(SC2C(=O)CC(CCc3ccccc3)(C(C)C)OC2=O)c(C(C)(C)C)cc1OS(=O)(=O)c1nccn1C (configuration not stated)
8.52

* * *

target: Dimer of Gag-Pol polyprotein [489-587] (Human immunodeficiency virus 1); construct: 489-587; test: Protease Inhibition Assay
parameter-measured: IC50 (nM)
Express your answer in nM, writing the number without its unit.

Worked cases, IC50 given:
Cc1cc(SC2C(=O)CC(CCc3ccccc3)(C(C)C)OC2=O)c(C(C)(C)C)cc1NS(=O)(=O)c1nccn1C (stereo not given) | 1.9
Cc1cc(SC2C(=O)CC(CCc3ccc(O)cc3)(C3CCCCC3)OC2=O)c(C(C)(C)C)cc1OS(=O)(=O)c1nccn1C (stereo not given) | 8

Entry under review: CCNS(=O)(=O)Nc1cc(C(C)(C)C)c(SC2C(=O)CC(CCc3ccccc3)(C(C)C)OC2=O)cc1C (stereo not given) . Reported IC50?
3.3

Moving on to Cc1cc(SC2C(=O)CC(CCc3ccc(N)cc3)(C(C)C)OC2=O)c(C(C)(C)C)cc1OS(=O)(=O)c1nccn1C (stereo not given)
2.2

Another: Cc1cc(SC2C(=O)CC(CCc3ccc(O)cc3)(C(C)C)OC2=O)c(C(C)(C)C)cc1OS(=O)(=O)c1ccccc1 (stereo not given)
10.4
